Data origin, for the record: patent US10640547B2

ASSAY_TARGET: HLA-A*02:01 (Homo sapiens, UniProt P04439, D140Y/D185E/D98H/E176V/E277Q/G131W/G231S/I119V/I121R/I166T/I218V/L300P/L318F/N151K/N90K/P208A/P217A/Q86G/Q94H/R138H/R169H/T345S)
ASSAY_NOTES: MHC binding assay (UV-ligand exchange, β2m ELISA)
STUDY_CONDITIONS: MHC class I binding score; binding to HLA-A*02:01 ranged by peptide exchange yield (UV-ligand exchange, β2m ELISA)
OBSERVABLE: Peptide exchange

- SUBSTANCE: "117 (KQQASQVLV; listed as Homo sapiens) [compound 117]"
  OBSERVABLE: "Peptide exchange"
  EXPERIMENTAL_VALUE: "+++ (>50 = +++)"
- SUBSTANCE: "212 (LLKDSIVQL; listed as Homo sapiens) [compound 212]"
  OBSERVABLE: "Peptide exchange"
  EXPERIMENTAL_VALUE: "+++ (>50 = +++)"
- SUBSTANCE: "237 (VLYNESLQL; listed as Homo sapiens) [compound 237]"
  OBSERVABLE: "Peptide exchange"
  EXPERIMENTAL_VALUE: "++++ (>75% = ++++)"
- SUBSTANCE: "125 (YLFAFLNHL; listed as Homo sapiens) [compound 125]"
  OBSERVABLE: "Peptide exchange"
  EXPERIMENTAL_VALUE: "++++ (>75% = ++++)"
- SUBSTANCE: "66 (VMFEYGMRL; listed as Homo sapiens) [compound 66]"
  OBSERVABLE: "Peptide exchange"
  EXPERIMENTAL_VALUE: "++++ (>75% = ++++)"

Entry under test: 138 (YLDKTFYNL; listed as Homo sapiens) [compound 138] . Its Peptide exchange was +++ (>50 = +++)

Entry under test: 200 (LLEEINHFL; listed as Homo sapiens) [compound 200] . Its Peptide exchange was +++ (>50 = +++)

Entry under test: 186 (FLDHEMVFL; listed as Homo sapiens) [compound 186] . Its Peptide exchange was ++++ (>75% = ++++)

Entry under test: 28 (IVDNTTMQL; listed as Homo sapiens) [compound 28] . Its Peptide exchange was +++ (>50 = +++)

----------
System: CD8+ T cells
ASSAY_NOTES: In vitro immunogenicity: T-cell priming with artificial APCs loaded with peptide/MHC and anti-CD28, pMHC multimer readout
Type: cell-based, human
STUDY_CONDITIONS: Table 10A; HLA class I peptides
From the text: In order to obtain information regarding the immunogenicity of the TUMAPs of the present invention, the inventors performed investigations using an in vitro T-cell priming assay based on repeated stimulations of CD8+ T cells with artificial antigen presenting cells (aAPCs) loaded with peptide/MHC complexes and anti-CD28 antibody. […]
OBSERVABLE: Wells (in vitro immunogenicity)

Sample answers from the record:
- SUBSTANCE: "271 (SLVQRVETI; listed as Homo sapiens) [compound 271]"
  Wells (in vitro immunogenicity): "+ (<20% = +)"
- SUBSTANCE: "298 (KLQEEIPVL; listed as Homo sapiens) [compound 298]"
  Wells (in vitro immunogenicity): "+ (<20% = +)"
- SUBSTANCE: "247 (ALLNAILHSA; listed as Homo sapiens) [compound 247]"
  Wells (in vitro immunogenicity): "+ (<20% = +)"
- SUBSTANCE: "328 (SLSQELVGV; listed as Homo sapiens) [compound 328]"
  Wells (in vitro immunogenicity): "+ (<20% = +)"
- SUBSTANCE: "287 (KISDFGLATV; listed as Homo sapiens) [compound 287]"
  Wells (in vitro immunogenicity): "++ (20%-49% = ++)"
- SUBSTANCE: "318 (SIIEYLPTL; listed as Homo sapiens) [compound 318]"
  Wells (in vitro immunogenicity): "+ (<20% = +)"
- SUBSTANCE: "323 (VVDKTLLLV; listed as Homo sapiens) [compound 323]"
  Wells (in vitro immunogenicity): "+++ (50%-69% = +++)"
- SUBSTANCE: "321 (YLPTFFLTV; listed as Homo sapiens) [compound 321]"
  Wells (in vitro immunogenicity): "++ (20%-49% = ++)"
- SUBSTANCE: "250 (RVLPPSALQSV; listed as Homo sapiens) [compound 250]"
  Wells (in vitro immunogenicity): "+ (<20% = +)"
- SUBSTANCE: "310 (ALASVIKEL; listed as Homo sapiens) [compound 310]"
  Wells (in vitro immunogenicity): "+ (<20% = +)"

Entry under test: 283 (YTFSGDVQL; listed as Homo sapiens) [compound 283] . Its Wells (in vitro immunogenicity) was + (<20% = +)

Entry under test: 241 (RLYTKLLNEA; listed as Homo sapiens) [compound 241] . Its Wells (in vitro immunogenicity) was +++ (50%-69% = +++)

----------
ASSAY_TARGET: HLA-A*02:01 (Homo sapiens, UniProt P04439, D140Y/D185E/D98H/E176V/E277Q/G131W/G231S/I119V/I121R/I166T/I218V/L300P/L318F/N151K/N90K/P208A/P217A/Q86G/Q94H/R138H/R169H/T345S)
ASSAY_NOTES: MHC binding assay (UV-ligand exchange, β2m ELISA)
STUDY_CONDITIONS: MHC class I binding score; binding to HLA-A*02:01 ranged by peptide exchange yield (UV-ligand exchange, β2m ELISA)
OBSERVABLE: Peptide exchange

Sample answers from the record:
- SUBSTANCE: "59 (IIDDVMKEL; listed as Homo sapiens) [compound 59]"
  Peptide exchange: "++ (>20% = ++)"
- SUBSTANCE: "157 (HLFETISQA; listed as Homo sapiens) [compound 157]"
  Peptide exchange: "+++ (>50 = +++)"
- SUBSTANCE: "210 (LLPELRDWGV; listed as Homo sapiens) [compound 210]"
  Peptide exchange: "+++ (>50 = +++)"
- SUBSTANCE: "80 (FADELSHLL; listed as Homo sapiens) [compound 80]"
  Peptide exchange: "+++ (>50 = +++)"
- SUBSTANCE: "50 (HLDQIFQNL; listed as Homo sapiens) [compound 50]"
  Peptide exchange: "++ (>20% = ++)"
- SUBSTANCE: "224 (ILDEPTNHL; listed as Homo sapiens) [compound 224]"
  Peptide exchange: "++ (>20% = ++)"
- SUBSTANCE: "168 (KLLAATLLL; listed as Homo sapiens) [compound 168]"
  Peptide exchange: "++++ (>75% = ++++)"
- SUBSTANCE: "178 (FAYDGKDYIA; listed as Homo sapiens) [compound 178]"
  Peptide exchange: "++++ (>75% = ++++)"

Would you kindly look at the next entry?
Entry under test: 204 (RMDEEFTKI; listed as Homo sapiens) [compound 204] . Its Peptide exchange was +++ (>50 = +++)

----------
ASSAY_TARGET: HLA-A*02:01 (Homo sapiens, UniProt P04439, D140Y/D185E/D98H/E176V/E277Q/G131W/G231S/I119V/I121R/I166T/I218V/L300P/L318F/N151K/N90K/P208A/P217A/Q86G/Q94H/R138H/R169H/T345S)
ASSAY_NOTES: MHC binding assay (UV-ligand exchange, β2m ELISA)
STUDY_CONDITIONS: MHC class I binding score; binding to HLA-A*02:01 ranged by peptide exchange yield (UV-ligand exchange, β2m ELISA)
OBSERVABLE: Peptide exchange

Sample answers from the record:
- SUBSTANCE: "196 (ALEPIDITV; listed as Homo sapiens) [compound 196]"
  Peptide exchange: "+++ (>50 = +++)"
- SUBSTANCE: "127 (TLISDIEAVKA; listed as Homo sapiens) [compound 127]"
  Peptide exchange: "+++ (>50 = +++)"
- SUBSTANCE: "235 (ALADLQEAV; listed as Homo sapiens) [compound 235]"
  Peptide exchange: "++++ (>75% = ++++)"
- SUBSTANCE: "106 (TLSEICEFI; listed as Homo sapiens) [compound 106]"
  Peptide exchange: "++++ (>75% = ++++)"

Would you kindly look at the next entry?
Entry under test: 165 (ALIEVLQPLI; listed as Homo sapiens) [compound 165] . Its Peptide exchange was ++++ (>75% = ++++)

----------
ASSAY_TARGET: HLA-A*02:01 (Homo sapiens, UniProt P04439, D140Y/D185E/D98H/E176V/E277Q/G131W/G231S/I119V/I121R/I166T/I218V/L300P/L318F/N151K/N90K/P208A/P217A/Q86G/Q94H/R138H/R169H/T345S)
ASSAY_NOTES: MHC binding assay (UV-ligand exchange, β2m ELISA)
STUDY_CONDITIONS: MHC class I binding score; binding to HLA-A*02:01 ranged by peptide exchange yield (UV-ligand exchange, β2m ELISA)
Source text: Candidate peptides for T cell based therapies according to the present invention were further tested for their MHC binding capacity (affinity). The individual peptide-MHC complexes were produced by UV-ligand exchange, where a UV-sensitive peptide is cleaved upon UV-irradiation, and exchanged with the peptide of interest as analyzed. Only peptide candidates that can effectively bind and stabilize the peptide-receptive MHC molecules prevent dissociation of the MHC complexes. […]

- SUBSTANCE: "169 (TLLESIQHV; listed as Homo sapiens) [compound 169]"
  Peptide exchange: "++++ (>75% = ++++)"
- SUBSTANCE: "96 (LLDMSLVKL; listed as Homo sapiens) [compound 96]"
  Peptide exchange: "+++ (>50 = +++)"
- SUBSTANCE: "230 (HLDEARTLL; listed as Homo sapiens) [compound 230]"
  Peptide exchange: "++++ (>75% = ++++)"
- SUBSTANCE: "103 (SLDAVMPHL; listed as Homo sapiens) [compound 103]"
  Peptide exchange: "+++ (>50 = +++)"
